Data credit: patent US20240109974A1

- TESTED_SYSTEM: T1, Human TNFR2-His (Sino 10417-H08H) (human, UniProt P20333 23-257)
- T1 construct: Bought protein; also called recombinant human TNFR2 protein; not shown: His tag
- T1 sequence (looked up): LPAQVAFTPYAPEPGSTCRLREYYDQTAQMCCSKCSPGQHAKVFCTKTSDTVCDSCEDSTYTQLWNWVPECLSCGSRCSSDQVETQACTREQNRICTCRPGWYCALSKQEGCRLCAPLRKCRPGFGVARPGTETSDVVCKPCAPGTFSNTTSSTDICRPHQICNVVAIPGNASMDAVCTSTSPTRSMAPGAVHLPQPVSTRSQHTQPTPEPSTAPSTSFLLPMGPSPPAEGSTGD
- ASSAY: SPR (Biacore T200), antibody captured on Protein A chip
EXPERIMENTAL_ENDPOINT: kon (M⁻¹ s⁻¹)
Output spec: scalar in M⁻¹ s⁻¹, unitless text.

Take a look at these entries with their results.
# kon (binder: 224-Hu7 (antibody, V domains shown, Humanized form of #224; also called VH9 + VL10) VH: QVQLVQSGSELKKPGASVKVSCKASGFNNKDIYMHWVRQAPGQGLEWMGRIDPATGNTKHDPKFQDKAVLSSDTSVSTAYLQISSLKAEDTAVYYCARSPYGDFGAMDYWGQGTLVTVSS VL: DIQMTQSPSSLSASVGDRVTITCTASSSVSSNYLHWYQQKPGKAPKLLIYSTSNLPSGVPSRFSGSGSGTDFTLTISSLQPEDFATYYCHQYHRSPWTFGQGTKVEIK ) is 145000

kon in this record for 001-Hu3 (antibody, V domains shown, Humanized form of #001; also called VH1 + VL3) VH: EVQLVESGGGLVQPGGSLRLSCAASGFAFSTYDLSWVRQAPGKGLEWVAYINNGGISTYYSDTVKGRFTISRDNAKNTLYLQMNSLRAEDTAVYYCVRGPFYGSANYFDYWGQGTLVTVSS VL: DIQMTQSPSSLSASVGDRVTITCRTSESIYSNLPWYQQKPGKAPKLLIYDATKLAEGVPSRFSGSGSGTDYTLTISSLQPEDFATYYCQHFWVTPWTFGQGTKVEIK : 265000

Continuing:
Sure, the documented kon for 224-Hu3 (antibody, V domains shown, Humanized form of #224; also called VH9 + VL8) VH: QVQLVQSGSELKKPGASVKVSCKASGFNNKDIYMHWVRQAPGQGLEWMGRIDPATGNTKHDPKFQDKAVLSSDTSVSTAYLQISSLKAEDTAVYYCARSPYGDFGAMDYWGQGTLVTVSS VL: DIQMTQSPSSLSASVGDRVTITCTASSSVSSNYLHWYQQKPGKAPKLLIYSTSNLPSGVPSRFSGSGSGTDFTLTISSLQAEDAATYYCHQYHRSPWTFGQGTKVEIK is 177000
